assay: in vivo; conditions: male, cynomolgus monkey, iv, 3 ug/kg
Where a SMILES comes first, the peptide text is derived from it. [ ]: non-standard residue; d: D form. pGlu = O=C1CC[C@@H](C(=O)O)N1
Assay Endpoint: Tmax (min)
One number for each entry, in min.

Ask | So what does the record say about Tmax for CC(C)C[C@H](NC(=O)[C@H](Cc1c[nH]c2ccccc12)NC(=O)CNC(=O)[C@H](Cc1ccc(O)cc1)NC(=O)[C@H](C)NC(=O)[C@H](CCC(=O)O)NC(=O)[C@H](CCC(=O)O)NC(=O)[C@H](CCC(=O)O)NC(=O)[C@H](CCC(=O)O)NC(=O)[C@H](CCC(=O)O)NC(=O)[C@H](CC(C)C)NC(=O)[C@H](Cc1c[nH]c2ccccc12)NC(=O)[C@@H]1CCCN1C(=O)CNC(=O)[C@@H]1CCC(=O)N1)C(=O)N[C@@H](CC(=O)O)C(=O)N[C@@H](Cc1ccccc1)C(N)=O [Compound B] ([pGlu]GPWLEEEEEAYGWLDF-NH2) ?
Reply | 2

src = patent US20040229810A1
